- measuredTarget: Receptor tyrosine-protein kinase erbB-2 (Homo sapiens)
- runDescription: Her2 expression decrease, cell viability multiplex – SKBR3 breast tumor cells, AlphaScreen, ATP viability, primary screen (AID 461);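 also: lower value means less Her2 protein in the cells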
- conditionsUsed: 18-24 h, at 10 µM, active compounds read low
I'd appreciate it if you could supply Her2 level values for the items below.
Just the number please, in %, no unit attached.

Prompt: Data request, read-out Her2 level, for CN1CCc2c(sc3c2C(=O)NC(c2cccc(OC(=O)c4cccs4)c2)N3)C1 (configuration not stated)
Response: 78.5

Prompt: Data request, read-out Her2 level, for COc1cc(C2N3CC4(C)CN2CC(C)(C3)C4)ccc1O (configuration not stated)
Response: 123

Prompt: Data request, read-out Her2 level, for CC(=O)N(C(C)=O)c1ncc2c([nH]c3ccccc32)c1C#N
Response: 95

Prompt: Data request, read-out Her2 level, for COC(=O)COc1cccc(NC(=O)COc2ccccc2)c1
Response: 122

Prompt: Data request, read-out Her2 level, for COc1ccc(S(=O)(=O)Cc2ccc(C(=O)N3CCOCC3)o2)cc1
Response: 126

Prompt: Data request, read-out Her2 level, for CCOC(=O)/C(C#N)=C(/C)c1ccc(OC)cc1
Response: 104

Prompt: Data request, read-out Her2 level, for COC(=O)Cn1c(CN2CCOCC2)nc2c1c(=O)n(C)c(=O)n2C
Response: 86.5

Prompt: Data request, read-out Her2 level, for Nc1cccc2c1C(=O)N(c1ccccc1)C2=O
Response: 97

Prompt: Data request, read-out Her2 level, for O=C(Cn1nc(Cc2cccnc2)c2ccccc2c1=O)NCC1CCCO1 (configuration not stated)
Response: 111

Prompt: Data request, read-out Her2 level, for O=C(CCNS(=O)(=O)c1cccc2nsnc12)NCc1cccs1
Response: 85.5

Prompt: Data request, read-out Her2 level, for CCc1c(C)c2c(C)nn(-c3ccccc3)c2[nH]c1=O
Response: 81.5

Prompt: Data request, read-out Her2 level, for CCCCc1ccc(NC(=O)C2CCCO2)cc1 (configuration not stated)
Response: 122

###

I'd appreciate it if you could supply RAM network inhibition values for the items below.
- runDescription: RAM signaling pathway blockade in yeast – S. cerevisiae, Pdr1DBD-CYC8 efflux-inhibited sensitized strain, primary screen (AID 1298);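 also: 0% = DMSO untreated cells without growth and 100% = 10 µM 1-NA-PP1 full growth; higher means more yeast growth rescued from 5-FOA killing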
- conditionsUsed: S. cerevisiae cbk1-as DSE1-URA3 strain, 5-FOA growth OD615, 2 d; at 50 µM; active compounds read high
Just the number please, in %, no unit attached.

Prompt: Data request, read-out RAM network inhibition, for O=C1CC(c2ccccc2)CC(O)=C1C=NCCN1CCOCC1 (stereo unspecified)
Response: -0.52

Prompt: Data request, read-out RAM network inhibition, for COc1cc(OC)c(NC2c3ccccc3C(=O)N2c2cc(C)ccn2)cc1Cl (stereo unspecified)
Response: 6.68

Prompt: Data request, read-out RAM network inhibition, for CC(CCc1ccccc1)NC(=O)C1CCCN(c2nnc(-n3cccc3)s2)C1 (stereo unspecified)
Response: 2.83

Prompt: Data request, read-out RAM network inhibition, for COc1ccccc1N1CCN(c2cc(=O)n(Cc3ccc(F)cc3)c(=O)[nH]2)CC1
Response: 2.69

Prompt: Data request, read-out RAM network inhibition, for C=CCOc1ccc(/C=C/C(C)=N\O)cc1
Response: 9.15

Prompt: Data request, read-out RAM network inhibition, for CCOC(=O)c1ccc2[nH]c3c(c2c1)CN(C)CC3
Response: 0.47

Prompt: Data request, read-out RAM network inhibition, for CCCc1cc(=O)oc2c(C)c3occ(C)c3cc12
Response: 3.02

Prompt: Data request, read-out RAM network inhibition, for Cc1onc(-c2ccccc2Cl)c1C(=O)Nc1cnn(Cc2ccccc2)c1
Response: 2.37

Prompt: Data request, read-out RAM network inhibition, for CCSc1nnc(Cc2cc(=O)[nH]c(=O)[nH]2)n1-c1ccc(F)cc1
Response: 1.04

Prompt: Data request, read-out RAM network inhibition, for CCCCn1c(=NC(=O)c2cccnc2)c(C(=O)OCC)cc2c(=O)n3ccccc3nc21
Response: 7.68

Prompt: Data request, read-out RAM network inhibition, for CCOc1ccc(C2CC(c3ccc(OC)cc3)n3ncnc3N2)cc1 (stereo unspecified)
Response: 4.99
